pIC50: −log10 of the molar value.
Reported pIC50 on Progesterone receptor (Homo sapiens) for assorted compounds, compiled from publications.
Sequence (P06401 whole entry): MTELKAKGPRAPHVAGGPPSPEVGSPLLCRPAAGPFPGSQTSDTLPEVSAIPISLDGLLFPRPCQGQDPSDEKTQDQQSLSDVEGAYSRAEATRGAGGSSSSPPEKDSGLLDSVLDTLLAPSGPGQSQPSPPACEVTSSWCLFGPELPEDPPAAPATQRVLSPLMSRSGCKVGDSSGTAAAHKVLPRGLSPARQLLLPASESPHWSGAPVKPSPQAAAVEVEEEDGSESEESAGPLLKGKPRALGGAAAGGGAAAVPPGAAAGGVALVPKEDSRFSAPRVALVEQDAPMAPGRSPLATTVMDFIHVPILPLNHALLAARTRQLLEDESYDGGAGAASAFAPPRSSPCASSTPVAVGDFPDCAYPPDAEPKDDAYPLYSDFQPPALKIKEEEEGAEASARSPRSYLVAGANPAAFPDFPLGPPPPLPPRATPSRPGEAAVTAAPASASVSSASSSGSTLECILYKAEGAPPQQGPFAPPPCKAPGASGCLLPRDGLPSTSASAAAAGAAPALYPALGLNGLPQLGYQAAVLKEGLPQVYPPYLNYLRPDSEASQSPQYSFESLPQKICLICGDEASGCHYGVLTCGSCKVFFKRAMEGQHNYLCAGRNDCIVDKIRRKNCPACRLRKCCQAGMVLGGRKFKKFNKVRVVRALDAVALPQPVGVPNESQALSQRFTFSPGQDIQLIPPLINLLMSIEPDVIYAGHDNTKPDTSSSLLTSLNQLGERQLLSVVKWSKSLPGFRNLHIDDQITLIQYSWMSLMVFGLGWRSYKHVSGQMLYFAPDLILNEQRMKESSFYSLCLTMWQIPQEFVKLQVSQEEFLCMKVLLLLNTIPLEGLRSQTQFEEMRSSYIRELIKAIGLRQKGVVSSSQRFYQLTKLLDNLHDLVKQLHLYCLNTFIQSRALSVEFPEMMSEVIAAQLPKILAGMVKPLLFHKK
reportedProperty: pIC50

>>> measurement("COc1ccccc1-c1ccc2c(c1)C(C(C)OC)=CC(C)(C)N2 (stereo not given)")
6.27
>>> measurement("Cc1c(C#N)c(N)nc2c3c(sc12)NC(=O)C[C@@H]3c1ccccc1Cl")
6.80
>>> measurement("CC(C)(CC(O)(Cn1ccc(=O)c2ccccc21)C(F)(F)F)c1cccc2c1OCC2 (stereo not given)")
7.32
>>> measurement("Cc1ccc(O)c(C(C)(C)CC(O)(Cn2ccc(=O)c3ccccc32)C(F)(F)F)c1 (stereo not given)")
6.80
>>> measurement("CCNS(=O)(=O)c1ccc(-c2ccc3c(cnn3-c3ccc(F)cc3)c2)c(C(F)(F)F)c1")
5.80
>>> measurement("COc1ccc(F)cc1C(C)(C)CC(O)(C(=O)Nc1ccc2c(=O)onc(C)c2c1)C(F)(F)F (stereo not given)")
7.66
>>> measurement("CC(C)(CC(O)(Cc1ccccc1)C(=O)Nc1ccc2c(c1)COC2=O)c1cc(F)ccc1O (stereo not given)")
7.46
>>> measurement("CC[C@@H](Cc1ccc(O)c(C)c1C)NS(=O)(=O)c1c(C)cc(C)cc1C")
6.21
>>> measurement("CC(Cc1c[nH]c2ccccc12)NS(=O)(=O)c1c(Cl)cc(Cl)cc1Cl (stereo not given)")
6.24
>>> measurement("CCC(Cc1cccc2ccccc12)NS(=O)(=O)c1c(C)cc(C)cc1C (stereo not given)")
5.82
>>> measurement("CC(C)(CC(O)(Cc1ccccn1)C(=O)Nc1ccc2c(c1)COC2=O)c1ccccc1 (stereo not given)")
6.40
